Target: T1, human EphA10 (Homo sapiens, UniProt Q5JZY3)
T1 construct: a protein of the extracellular region of each human Eph receptor fused with the SEAP protein and the His tag; made in house; host or cells: Expi293F cells (culture supernatant)
T1 sequence (Q5JZY3 34-565 limits assumed): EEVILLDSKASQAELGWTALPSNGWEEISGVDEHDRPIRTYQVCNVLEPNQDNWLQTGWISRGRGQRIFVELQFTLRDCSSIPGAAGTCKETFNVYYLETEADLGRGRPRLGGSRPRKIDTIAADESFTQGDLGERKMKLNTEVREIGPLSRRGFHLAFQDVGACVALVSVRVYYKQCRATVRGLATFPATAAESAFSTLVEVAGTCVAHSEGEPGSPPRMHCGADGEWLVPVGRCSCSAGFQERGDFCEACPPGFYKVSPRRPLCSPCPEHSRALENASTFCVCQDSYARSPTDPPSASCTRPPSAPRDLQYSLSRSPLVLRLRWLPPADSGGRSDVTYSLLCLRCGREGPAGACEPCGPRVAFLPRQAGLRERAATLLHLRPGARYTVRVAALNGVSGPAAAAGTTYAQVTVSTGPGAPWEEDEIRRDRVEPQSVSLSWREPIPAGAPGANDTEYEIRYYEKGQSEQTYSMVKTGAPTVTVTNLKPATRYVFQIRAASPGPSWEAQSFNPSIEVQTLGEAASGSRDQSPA
Experiment: Selectivity ELISA of humanized antibodies for human Eph receptor
Format: binding
Conditions: coated protein 1 nM
Below, each entry is listed alongside its reported hEphA10-SEAP-: absorbance at 450 nm, percentage with respect to hEphA4-SEAP-His as 100%.
recorded-metric: hEphA10-SEAP-: absorbance at 450 nm, percentage with respect to hEphA4-SEAP-His as 100%

{"molecule": "93 (antibody, V domains shown, constant regions without entry; synthetic humanized antibody light chain variable region sequence; synthetic humanized antibody heavy chain variable region sequence) VL: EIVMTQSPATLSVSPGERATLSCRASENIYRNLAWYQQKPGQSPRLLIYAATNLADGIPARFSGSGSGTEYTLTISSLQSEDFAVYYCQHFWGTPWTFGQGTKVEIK VH: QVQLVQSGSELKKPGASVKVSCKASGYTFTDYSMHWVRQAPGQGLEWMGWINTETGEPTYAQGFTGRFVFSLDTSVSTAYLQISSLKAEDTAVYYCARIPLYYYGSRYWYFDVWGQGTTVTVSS", "observed": "4.9%"}
{"molecule": "85 (antibody, V domains shown, constant regions without entry; synthetic humanized antibody light chain variable region sequence; synthetic humanized antibody heavy chain variable region sequence) VL: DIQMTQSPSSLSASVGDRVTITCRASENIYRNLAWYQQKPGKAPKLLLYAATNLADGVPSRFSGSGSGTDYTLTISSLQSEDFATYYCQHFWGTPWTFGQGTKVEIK VH: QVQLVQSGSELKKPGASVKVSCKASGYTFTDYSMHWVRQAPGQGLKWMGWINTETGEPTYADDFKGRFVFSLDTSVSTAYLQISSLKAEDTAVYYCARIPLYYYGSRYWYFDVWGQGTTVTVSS", "observed": "5.0%"}
{"molecule": "144 (antibody, V domains shown, synthetic humanized antibody heavy chain variable region sequence; synthetic humanized antibody light chain variable region sequence) VH: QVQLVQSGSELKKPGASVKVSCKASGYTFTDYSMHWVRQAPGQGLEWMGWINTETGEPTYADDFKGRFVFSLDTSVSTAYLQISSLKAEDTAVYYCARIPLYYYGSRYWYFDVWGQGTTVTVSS VL: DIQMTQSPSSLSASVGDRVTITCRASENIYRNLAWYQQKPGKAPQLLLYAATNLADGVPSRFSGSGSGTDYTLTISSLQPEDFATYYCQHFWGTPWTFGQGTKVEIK", "observed": "5.7%"}
{"molecule": "152 (antibody, V domains shown, synthetic humanized antibody heavy chain variable region sequence; synthetic humanized antibody light chain variable region sequence) VH: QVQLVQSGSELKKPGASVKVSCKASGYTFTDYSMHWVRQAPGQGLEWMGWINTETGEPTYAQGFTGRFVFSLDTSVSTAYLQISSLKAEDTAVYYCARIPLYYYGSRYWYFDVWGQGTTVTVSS VL: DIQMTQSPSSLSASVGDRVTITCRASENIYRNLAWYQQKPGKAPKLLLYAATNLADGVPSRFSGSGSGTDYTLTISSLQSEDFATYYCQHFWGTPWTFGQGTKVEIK", "observed": "5.8%"}
{"molecule": "133 (antibody, V domains shown, synthetic humanized antibody heavy chain variable region sequence; synthetic humanized antibody light chain variable region sequence) VH: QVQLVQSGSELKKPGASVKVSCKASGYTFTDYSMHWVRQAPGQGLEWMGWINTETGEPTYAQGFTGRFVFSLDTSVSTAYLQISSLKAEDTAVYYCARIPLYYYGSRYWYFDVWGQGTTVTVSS VL: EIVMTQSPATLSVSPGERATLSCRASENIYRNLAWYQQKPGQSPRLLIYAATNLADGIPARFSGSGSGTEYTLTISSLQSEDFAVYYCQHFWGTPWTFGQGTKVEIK", "observed": "4.7%"}
{"molecule": "138 (antibody, V domains shown, synthetic humanized antibody heavy chain variable region sequence; synthetic humanized antibody light chain variable region sequence) VH: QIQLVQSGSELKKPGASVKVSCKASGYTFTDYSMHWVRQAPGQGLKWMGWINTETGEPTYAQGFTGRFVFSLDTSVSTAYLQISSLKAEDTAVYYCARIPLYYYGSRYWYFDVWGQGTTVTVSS VL: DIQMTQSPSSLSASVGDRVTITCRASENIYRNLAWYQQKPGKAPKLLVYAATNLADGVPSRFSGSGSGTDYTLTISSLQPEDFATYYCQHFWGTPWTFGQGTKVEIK", "observed": "5.0%"}
{"molecule": "71 (antibody, V domains shown, synthetic humanized antibody heavy chain variable region sequence; synthetic humanized antibody light chain variable region sequence) VH: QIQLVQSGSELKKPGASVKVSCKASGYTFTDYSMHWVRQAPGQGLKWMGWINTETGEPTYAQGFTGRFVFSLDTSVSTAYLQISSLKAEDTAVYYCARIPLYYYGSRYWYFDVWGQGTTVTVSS VL: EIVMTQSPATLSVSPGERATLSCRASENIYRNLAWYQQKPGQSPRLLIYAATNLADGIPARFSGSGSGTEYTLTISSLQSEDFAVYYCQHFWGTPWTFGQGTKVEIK", "observed": "5.3%"}
